Documented GI50 across a set of compounds
# Test system: UO-31
# Assay Procedure: NCI tumour cell line growth inhibition, 48 h
Active and inactive are the calls of the source. No stated cut-off is given here; in the data, active = GI50 up to about 1.1 µM and inactive = higher.
Observed Property: GI50

Compound: C=C1[C@H]2O[C@H]2[C@@H](OC(C)=O)[C@@]2(C)[C@@H](OC(C)=O)C[C@@H](OC(=O)CCC)[C@@](C)(O)[C@@H]2[C@@H](OC(C)=O)[C@]2(O)[C@@H](C)C(=O)O[C@H]2[C@H]1Cl
Measured Result: > 100 µM (inactive)
//
Compound: COc1ccc(/C=C2\Cc3ccccc3C2=O)cc1OC
Measured Result: 39.7 µM (inactive)
//
Compound: O=C(Cc1ccccc1)NN1C(=O)/C(=C\c2cccc([N+](=O)[O-])c2)S/C1=N\c1ccccc1
Measured Result: > 100 µM (inactive)
//
Compound: O=c1c2ccccc2nc2sc(/N=C/C=C/c3ccccc3)nn12
Measured Result: 77.4 µM (inactive)
//
Compound: COc1ccc(C(=O)/C=C2\C(=O)Nc3ccc(Br)cc32)cc1
Measured Result: 2.24 µM (inactive)
//
Compound: c1ccc2[nH]c(CNc3ccc(C4C[Se]N=N4)cc3)nc2c1 (centres undefined)
Measured Result: 38.9 µM (inactive)
//
Compound: O=C1OC2(CCCCC2)C(Oc2ccc(Cl)cc2)=C1F
Measured Result: 49.5 µM (inactive)
//
Compound: C#CCN(N=O)C(=O)NCCCC(NC(C)=O)C(=O)NCc1ccccc1 (centres undefined)
Measured Result: > 100 µM (inactive)
//
Compound: CC1(C)OC(=O)C(=Cc2ccc([N+](=O)[O-])s2)C(=O)O1
Measured Result: 10.8 µM (inactive)
//
Compound: CC(C)=CC(=O)c1c(C(=O)O)nc2ccccc2[n+]1[O-]
Measured Result: > 100 µM (inactive)
//
Compound: C[C@@H]1C[C@H]2[C@@H]3CCC4=CC(=O)C=C[C@]4(C)[C@@]3(F)[C@@H](O)C[C@]2(C)[C@@]1(O)C(=O)CO [DEXAMETHASONE]
Measured Result: > 100 µM (inactive)
//
Compound: N#C/C(=C1\SC(/N=N/c2ccc(Cl)cc2)C(=O)N1c1ccccc1)c1nc2ccccc2[nH]1 (centres undefined)
Measured Result: 19.8 µM (inactive)
//
Compound: O=[N+]([O-])C1(CO)COC2(OC1)c1ccccc1-c1ccccc12
Measured Result: > 100 µM (inactive)
//
Compound: CC(=O)SC(C[N+](=O)[O-])c1ccc2c(c1)OCO2 (centres undefined)
Measured Result: 5.46 µM (inactive)
//
Compound: COc1ccccc1/N=N/C(=N\NC(=O)c1ccc(C)cc1)c1ccc(N(CCC#N)CCC#N)cc1C
Measured Result: 61.9 µM (inactive)
//
Compound: COC(=O)c1cnc(Cl)c([N+](=O)[O-])c1
Measured Result: 1.96 µM (inactive)
//
Compound: C/C(=N\Nc1nc2ccccc2n1C)c1cnccn1
Measured Result: 0.0407 µM (active)
//
Compound: Cn1c(=O)c(C(=O)Nc2nc(C34CC5CC(CC(C5)C3)C4)cs2)c(O)c2ccccc21
Measured Result: > 100 µM (inactive)
//
Compound: Cn1c(CBr)nc2c1C(=O)c1nc(CBr)[nH]c(=O)c1C2=O
Measured Result: > 100 µM (inactive)
